# Test system: Enterobacter cloacae
# assay: MIC against Gram-negative bacteria: Enterobacter cloacae
# Type: cell-based
# measurement.parameters: E. cloacae; 10 h cultivation at 37° C.; 5×10^5 CFU/mL
# key: entry, value: MIC
Reply numerically in µg/mL, unit not repeated.

Recorded results for 2 substances are shown here.
PRT412 (LNDRCRGGGPCKQQCRDTGDEVVCSCFVGYQLLSDGVSCE; listed as Homo sapiens)    50
PRT440 (DVNECRQNVCRPDQHCKNTRGGYKCIDLCPNGMTKAENGTCI; listed as Homo sapiens)    50

Prompt: State the recorded MIC for this entry: PRT418 (DINECSSSPCSQECANVYGSYQCYCRRGYQLSDVDGVTCE; listed as Homo sapiens)
Completion: 12.5

Prompt: If you can, please state the reported MIC value of PRT425 (DVDECAMGTHTCQPGFLCQNTKGSFYCQARQRCMDGFLQDPEGNCV; listed as Homo sapiens) .
Completion: 12.5

Prompt: Find the recorded MIC belonging to PRT417 (DVNECQRYPGRLCGHKCENTLGSYLCSCSVGFRLSVDGRSCE; listed as Homo sapiens) and report it.
Completion: 25

Prompt: Suppose we examine the substance PRT422 (DVDECALGTHNCSEAETCHNIQGSFRCLRFECPPNYVQVSKTKCE; listed as Homo sapiens) ; what MIC value has been reported?
Completion: 12.5

----------
// MIC lookup, one value per entry
# System: Serratia marcescens
# assay: MIC against Gram-negative bacteria: Serratia marcescens
# Format: cell-based
# measurement.parameters: S. marcescens; 10 h cultivation at 37° C.
Give just the numeric value; µg/mL need not be written.

Check out these entries, answers already filled in.
PRT973 (DLPDCSPSSCFNGGTCVDGVNSFSCLCRPGYTGAHCQ; listed as Homo sapiens)    12.5
PRT1034 (DENECEQNNGGCSEICVNLKNSYRCECGVGRVLRSDGKTCE; listed as Homo sapiens)    50
PRT1040 (AAHPCVRAPCAHGGSCRPRKEGYDCDCPLGFEGLHCQ; listed as Homo sapiens)    50

Now let's try a different one.
Prompt: What MIC value was documented for this substance, PRT1011 (RAPSCGFHHCHHGGLCLPSPKPGFPPRCACLSGYGGPDCL; listed as Homo sapiens) ?
Completion: 25

----------
Parameter MIC (μg/mL) P. mirabilis: see the listing below.
# Tested on: Proteus mirabilis
# assay: MIC against Gram-negative bacteria: Proteus mirabilis
# Format: cell-based
# measurement.parameters: Proteus mirabilis; 96-well plate, 5×10^5 CFU/mL, 37° C., 10 h
Output spec: scalar in µg/mL, unitless text.

PRT26 (CDSGPCKNSGFCSERWGSFSCDCPVGFGGKDCQ; listed as Homo sapiens)    25
PRT27 (NACASGPCPPHADCRDLWQTFSCTCQPGYYGPGCV; listed as Homo sapiens)    25
PRT138 (PCHNNATCEDSVDNYTCHCWPGYTGAQCE; listed as Homo sapiens)    12.5
PRT83 (DDNVCLREPCENYMKCVSVLRFDSSAPFLASASTLFRPIQPIAGLRCRCPPGFTGDFCE; listed as Homo sapiens)    12.5

Prompt: // returns reported MIC (μg/mL) P. mirabilis for input PRT111 (DLDECASRSKSGEEDPQPQCQHLCHNYVGGYFCSCRPGYELQEDTHSCQ; listed as Homo sapiens)
Completion: 50
